The reader will find reported EC50 values listed item by item below.
Test system: WEEV California
method.summary: microbe, parasite or virus in culture
Type: cell-based
test.context: Western equine encephalitis virus, Vero 76, 48 h, read-out: WEEV California EC50 nM

structure	EC50
COc1ccc(-n2c([C@H]3C[C@H](F)CN3)nc3c(C)cc([N+](=O)[O-])cc3c2=O)cc1F	51 to 150 nM
COc1ccc(-n2c([C@@H]3C[C@@H](O)CN3)nc3c(-c4ccc(C)nc4)cc(C#N)cc3c2=O)cc1F	> 1000 nM
COc1ccc(-n2c([C@H](C)N(C)C)nc3ccc([N+](=O)[O-])cc3c2=O)cc1	51 to 150 nM
